System: ACHN
EXPERIMENT_SUMMARY: NCI tumour cell line growth inhibition, 48 h
Activity calls are given as the source filed them. Rule as the data show it: active = GI50 up to about 1.1 µM and inactive = higher.
Return exactly one item of active, inactive

O=C(Nc1ccc(Cl)cc1C(=O)O)c1ccc([N+](=O)[O-])cc1 = inactive
COc1cc2c(cc1OC)[C@@H](Nc1ccc(C#N)cc1)C1COC(=O)[C@@H]1C2c1cc(OC)c(O)c(OC)c1 (some centres not stated) = active
Cc1cc(S(=O)(=O)Nc2nc(N)n[nH]2)c(Cl)cc1Cl = inactive
CCN1CCC(O)(c2ccc(OC)cc2)C(C(=O)c2ccc(OC)cc2)C1 (configuration not stated) = inactive
COc1ccccc1NC(=S)N/N=C/c1ccccn1 = active
COc1ccc(C2=Nc3ccccc3NC(=O)C2)cc1 = inactive
C=C(CN(C)C)C1(c2ccccc2)CC2(CCCC2)C(=O)O1 (configuration not stated) = inactive
CC1=CC(=O)/C(=C/NC(=S)NCCc2ccccc2)C(=O)O1 = inactive

Alright, here's another compound for you.
Request: Called result for `Cc1[nH]nc(-c2ccon2)c1N=O`
Result: inactive

====

System: DLD-1
EXPERIMENT_SUMMARY: NCI tumour cell line growth inhibition, 48 h
The source made the active and inactive calls. Rule as the data show it: active = GI50 up to about 1.1 µM and inactive = higher.
MEASURED_QUANTITY: GI50

Field: example entries. Status: answers known.
CC(C)N(C(=O)C12C3C4C1C1C2C3C41C#N)C(C)C (stereo not given) = > 72.8 µM (inactive)
CN(C(=O)C1CC1)C1C2CN3CCC(O2)C13 (stereo not given) = > 100 µM (inactive)
COc1cc(/C=C/c2ccc(C)cc2)cc(OC)c1OC = 4.06 µM (inactive)

GI50 reading for `COC[C@H](C)/N=C/N1CCc2ccccc2C1(Cc1ccccc1)Cc1ccccc1` : 8.18 µM (inactive)

GI50 reading for `Cc1cc2c3ccccc3n(C)c2c2c1C(=O)c1ccccc1C2=O` : 14.6 µM (inactive)

GI50 reading for c1ccc(C2C3=C(Nc4ncnn42)c2ccccc2C3)cc1 (stereo not given) : 14.1 µM (inactive)

GI50 reading for COc1cc2oc(-c3ccc(O)cc3)cc(=O)c2c(O)c1C1OC(CO)C(O)C(O)C1O (stereo not given) : > 100 µM (inactive)

====

System: M14
EXPERIMENT_SUMMARY: NCI tumour cell line growth inhibition, 48 h
The source made the active and inactive calls. Cut-off read from the data, not from the text of the source: active = GI50 up to about 1.1 µM and inactive = higher.
MEASURED_QUANTITY: GI50

GI50 reading for CCOP(=O)(OCC)C1C(CO)OC(n2ccc(=O)[nH]c2=O)C1O (stereo not given) : > 100 µM (inactive)

GI50 reading for `CCOC(=O)/C1=C(\C)N(c2ccc(C)cc2)C(=O)c2ccccc2C(=O)c2c(OC(C)=O)ccc(OC(C)=O)c21` : 18.4 µM (inactive)

GI50 reading for `Cc1cc(S(=O)(=O)Nc2nc(N)n[nH]2)c(Cl)cc1Cl` : > 10 µM (inactive)

GI50 reading for `CC1=NN(c2nc(N)nc(CN3CCOCC3)n2)C(C)(C)C1` : > 100 µM (inactive)

GI50 reading for `COc1cc(/C=C/c2ccc(C)cc2)cc(OC)c1OC` : 3.56 µM (inactive)

====

Measured GI50, listed per entry.
Tested on: SF-268
EXPERIMENT_SUMMARY: NCI tumour cell line growth inhibition, 48 h
Activity calls are given as the source filed them. Rule as the data show it: active = GI50 up to about 1.1 µM and inactive = higher.

Cc1[nH]n(C(=N)N)c(=O)c1CCO = > 100 µM (inactive)
CCCC(=O)OC[n+]1ccc2c(C)c3[nH]c4ccccc4c3c(C)c2c1 = 0.661 µM (active)
Cc1cc2nnc(C(N)=O)c(N)c2cc1C = 30.1 µM (inactive)
CO/C(N)=C(C#N)/N=C/c1cccnc1 = > 100 µM (inactive)
Cc1c2cccc-2c(OCCO)cc2c1[nH]c1ccccc12 = 1.65 µM (inactive)
COc1cc(C2C(Cl)C(=O)N2NC(=O)Cc2ccccc2)cc(Br)c1O (stereo not drawn) = 61 µM (inactive)

GI50 reading for Oc1cc(O)c2c(c1)OC(c1ccc(O)c(O)c1)C(O)C2c1c(O)cc(O)c2c1OC(c1ccc(O)c(O)c1)C(O)C2 (stereo not drawn) : > 100 µM (inactive)

GI50 reading for `CNC(=S)NN=C1NCCCCN1` : > 100 µM (inactive)

GI50 reading for `Brc1cccc[n+]1-c1ccc2cc(-[n+]3ccccc3Br)ccc2c1` : 31.8 µM (inactive)
